biological target: Virion infectivity factor (Human immunodeficiency virus type 1 group M subtype B (isolate BH10)) + Virion infectivity factor (Human immunodeficiency virus type 1 group M subtype B (isolate BRU/LAI)) + Virion infectivity factor (Human immunodeficiency virus type 1 group M subtype B (isolate PCV12)) + Virion infectivity factor (Human immunodeficiency virus type 1 group M subtype B (isolate HXB2)) + DNA dC->dU-editing enzyme APOBEC-3G (Homo sapiens) (UniProt P69720+P69721+P69722+P69723+Q9HC16); assay: inhibitors of Vif binding to APOBEC3G peptide, primary screen, biochemical, TR-FRET, GST-Vif 1-94, biotin-A3G peptide, dose response retest (AID 1117319); settings: stronger effect = higher value;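 also: Vif residues 1-94 fused to GST binding biotinylated APOBEC3G peptide 110-148; 0% = full assay without inhibitor and 100% = GST in place of GST-Vif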
The whole screen tested about 260,000 compounds, of which about 1,500 (0.58%) were called active. Roughly 5% stayed inconclusive and do not appear here. Only a sample is shown. Entries with a potency or affinity are not part of this list.
Listed here are compounds together with their documented inhibition.
Recorded Metric: inhibition (%)

>>> value_observed("O=C1NC[C@@H](Cc2cccc3ccccc23)N(CC2CCCCC2)C1=O")
5.43
>>> value_observed("Cc1cc2c(OCC(O)CN3CCCC3)cccc2[nH]1 (stereo not drawn)")
2.52
>>> value_observed("CCOc1ccc(C(=O)COc2ccc(NC(C)=O)cc2)cc1")
6.05
>>> value_observed("CC/C(C)=N/Nc1ccc(S(=O)(=O)N2CCCC2)cc1[N+](=O)[O-]")
0.9
>>> value_observed("C=CCn1c(C)cc(C(=O)CSc2nc3ccccc3c(=O)[nH]2)c1C")
11.7
>>> value_observed("Clc1c(-c2ccccc2)nnn1-c1ccccc1")
-12
>>> value_observed("Cc1[nH]c(=O)[nH]c(=O)c1S(=O)(=O)Nc1cccc(C(F)(F)F)c1")
-6.82
>>> value_observed("COc1ccccc1NC(=O)C(C)OC(=O)CN1C(=O)C2CC=CCC2C1=O (stereo not drawn)")
-6.25
>>> value_observed("COCCn1c(C)cc(C(=O)CSc2nc3ccccc3c(=O)[nH]2)c1C")
25.5
>>> value_observed("O=C(CCc1nnc(CCCCc2ccccc2)o1)N1CCCC(O)C1 (stereo not drawn)")
20
>>> value_observed("Cc1ccc(CNC(=O)c2ccc(CN3CCOCC3)cc2)cc1")
32.3
>>> value_observed("CCNC(=O)COC(=O)c1ccc(S(=O)(=O)N2CCCCCC2)cc1")
-4.99
>>> value_observed("COc1ccccc1C(=O)N/C(=C\\c1ccc(Br)cc1)C(=O)NCCC(=O)O")
-1.86
>>> value_observed("CCCCn1cnc2c(SCc3ccc(Br)cc3)nc(N)nc21")
-11.3
>>> value_observed("CCn1c2ccccc2c2nc3cc(S(=O)(=O)N4CCOCC4)ccc3nc21")
2.64
>>> value_observed("O=C(OCCN1C(=O)c2ccccc2C1=O)c1cc(S(=O)(=O)N2CCOCC2)ccc1F")
-0.69
>>> value_observed("Cc1cc(C(C)(C)C)oc1C(=O)N(CC(=O)NC1CCCC1)Cc1ccc(F)cc1")
0.27
>>> value_observed("Cc1cc(C(=O)COC(=O)c2ccc[nH]c2=O)c(C)n1C1CC1")
13
